TARGET UNDER TEST: Glycogen synthase kinase-3 beta (Homo sapiens)
Sequence (P49841 whole entry): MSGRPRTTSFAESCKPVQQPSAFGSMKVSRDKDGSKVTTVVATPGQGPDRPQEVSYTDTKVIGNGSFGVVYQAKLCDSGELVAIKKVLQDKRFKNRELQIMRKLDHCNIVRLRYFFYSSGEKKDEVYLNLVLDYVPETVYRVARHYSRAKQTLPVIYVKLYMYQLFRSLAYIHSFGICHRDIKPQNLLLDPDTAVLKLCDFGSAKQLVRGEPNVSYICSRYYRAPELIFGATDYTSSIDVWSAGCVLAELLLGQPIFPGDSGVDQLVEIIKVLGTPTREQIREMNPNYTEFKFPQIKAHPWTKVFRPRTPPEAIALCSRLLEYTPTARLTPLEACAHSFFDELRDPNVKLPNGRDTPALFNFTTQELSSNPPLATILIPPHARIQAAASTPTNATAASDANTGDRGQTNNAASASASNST
ASSAY PROTOCOL: Inhibition of recombinant human GSK-3beta using YRRAAVPPSPSLSRHSSPHQ(pS)EDEE as substrate preincubated for 15 mins followed by substrate addition and measured after 60 mins by Kinase-Glo luminescent kinase assay
PROPERTY NAME: IC50 (nM)
Numbers only here, please. The scale is nM.

*Q* Request: IC50, test system Glycogen synthase kinase-3 beta (Homo sapiens), entry "COc1ccc(-c2ocnc2C(=O)NCCCn2cc(CNC(=O)/C=C/c3cc(C(C)(C)C)c(O)c(C(C)(C)C)c3)nn2)cc1Cl"
*A* 0.76

*Q* Item: "COc1ccc(-c2ocnc2C(=O)NCCCc2ccc(NC(=O)c3cc(C(C)(C)C)c(O)c(C(C)(C)C)c3)cc2)cc1Cl" Test system: Glycogen synthase kinase-3 beta (Homo sapiens) Read-out: IC50 Value: ?
*A* 0.92

*Q* Recorded IC50 for "COc1ccc(-c2ocnc2C(=O)NCCCCNC(=O)c2cc(C(C)(C)C)c(O)c(C(C)(C)C)c2)cc1F" with Glycogen synthase kinase-3 beta (Homo sapiens), please?
*A* 0.62

*Q* Fill in the recorded IC50 for this compound, with Glycogen synthase kinase-3 beta (Homo sapiens) as test system: "COc1ccc(-c2ocnc2C(=O)NCCCn2cc(CNC(=O)/C=C/c3cc(C(C)(C)C)c(O)c(C(C)(C)C)c3)nn2)cc1I"
*A* 0.33

Source of measurements: ChEMBL document CHEMBL5370539
